Provenance of the data: ChEMBL document CHEMBL1131594

Recorded pKi values (Human immunodeficiency virus type 1 protease (Human immunodeficiency virus 1)) are given below.
Value format note: pKi is -log10 of concentration (mol/L); just state the number.

O=C1N(Cc2ccccc2)[C@@H](Cc2ccccc2)[C@@H](O)[C@H](O)[C@H](Cc2ccccc2)N1Cc1ccccc1 : 5.42

Requested read-out: pKi. Entry: O=C1N(Cc2ccccc2)[C@H](Cc2ccccc2)[C@H](O)[C@H](O)[C@H](Cc2ccccc2)N1Cc1ccccc1
6.60

====

# Test system: Human immunodeficiency virus type 1 protease (Human immunodeficiency virus 1)
Ki vs 600 nM: less than gives MET; not less than gives NOT MET.

// below: answered molecules
O=C1N(Cc2ccccc2)[C@H](Cc2ccccc2)[C@H](O)[C@@H](O)[C@H](Cc2ccccc2)N1Cc1ccccc1 : MET
O=C1N(Cc2ccccc2)[C@H](Cc2ccccc2)[C@H](O)[C@@H](O)[C@@H](Cc2ccccc2)N1Cc1ccccc1 : MET
O=C1N(Cc2ccccc2)[C@H](Cc2ccccc2)[C@@H](O)[C@H](O)[C@H](Cc2ccccc2)N1Cc1ccccc1 : NOT MET
O=C1N(Cc2ccccc2)[C@@H](Cc2ccccc2)[C@H](O)[C@H](O)[C@H](Cc2ccccc2)N1Cc1ccccc1 : NOT MET
O=C1N(Cc2ccccc2)[C@@H](Cc2ccccc2)[C@H](O)[C@@H](O)[C@H](Cc2ccccc2)N1Cc1ccccc1 : MET

Moving on to another molecule below.
# strict comparison: is reported Ki < 600 nM? input = O=C1N(Cc2ccccc2)[C@H](Cc2ccccc2)[C@@H](O)[C@H](O)[C@@H](Cc2ccccc2)N1Cc1ccccc1
NOT MET
